- SYSTEM UNDER TEST: Dopamine active transporter (DAT) (Homo sapiens, UniProt Q01959)
- Sequence (Q01959 whole entry): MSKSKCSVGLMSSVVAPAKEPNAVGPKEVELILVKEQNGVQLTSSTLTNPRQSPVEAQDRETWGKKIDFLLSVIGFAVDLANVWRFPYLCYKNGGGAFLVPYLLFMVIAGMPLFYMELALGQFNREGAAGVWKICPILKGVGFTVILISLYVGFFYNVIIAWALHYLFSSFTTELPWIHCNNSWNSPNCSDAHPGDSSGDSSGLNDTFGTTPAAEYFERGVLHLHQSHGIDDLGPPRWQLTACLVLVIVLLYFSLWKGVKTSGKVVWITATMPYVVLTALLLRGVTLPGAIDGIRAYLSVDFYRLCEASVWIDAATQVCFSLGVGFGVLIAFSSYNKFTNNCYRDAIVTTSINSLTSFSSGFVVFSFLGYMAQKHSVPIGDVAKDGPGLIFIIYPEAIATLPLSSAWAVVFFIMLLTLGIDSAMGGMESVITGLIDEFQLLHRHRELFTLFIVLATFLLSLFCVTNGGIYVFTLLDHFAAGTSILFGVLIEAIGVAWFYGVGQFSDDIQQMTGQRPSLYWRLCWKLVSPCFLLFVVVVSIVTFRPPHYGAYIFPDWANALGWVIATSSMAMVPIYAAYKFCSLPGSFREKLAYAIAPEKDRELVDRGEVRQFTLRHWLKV
MEASUREMENT LABEL: pKi
Please keep in mind that pKi is minus log10 of the molar concentration; only the number is needed.

# input # lookup: Dopamine active transporter (DAT) (Homo sapiens, UniProt Q01959) pKi, key = CC(C(=O)c1cccc(Cl)c1)N(C)C(C)(C)C (racemic) [Compound 4, Rac-N-methyl bupropion]
# output 5.53

====

- MEASUREMENT DESCRIPTION: Microsomal metabolic stability screen, pooled human intestinal microsomes (HIM)
- Assay type: in vitro ADME
- RECORDED CONDITIONS: 10 µM prodrug, 0.02 mg/mL HIM, NADPH regenerating system, 37 °C, 60 min, n = 2; LOD 0.1 ng/mL
MEASUREMENT LABEL: Primary product detected in media HIM

CC1C(c2cccc(Cl)c2)=NOC(=O)N1C(C)(C)C (racemic); <LOD
CC(NC(C)(C)C)/C(=N/O)c1cccc(Cl)c1 (stereo not drawn) [Compound 9, syn- and anti-bupropion hydroxyimine]; <LOD
Cc1c(-c2cccc(Cl)c2)oc(=O)n1C(C)(C)C; <LOD
